biological target: N-type Ca2+ channels in IMR-32 cells (Homo sapiens); construct: host or cells: IMR-32 cells, differentiated with dibutyryl cAMP and bromodeoxyuridine; assay: Inhibition of N-type calcium flux in IMR-32 cells (Indo-1 fluorescence, nitrendipine present); assay type: cell-based; settings: 10 μM
Sequence (Q00975 whole entry): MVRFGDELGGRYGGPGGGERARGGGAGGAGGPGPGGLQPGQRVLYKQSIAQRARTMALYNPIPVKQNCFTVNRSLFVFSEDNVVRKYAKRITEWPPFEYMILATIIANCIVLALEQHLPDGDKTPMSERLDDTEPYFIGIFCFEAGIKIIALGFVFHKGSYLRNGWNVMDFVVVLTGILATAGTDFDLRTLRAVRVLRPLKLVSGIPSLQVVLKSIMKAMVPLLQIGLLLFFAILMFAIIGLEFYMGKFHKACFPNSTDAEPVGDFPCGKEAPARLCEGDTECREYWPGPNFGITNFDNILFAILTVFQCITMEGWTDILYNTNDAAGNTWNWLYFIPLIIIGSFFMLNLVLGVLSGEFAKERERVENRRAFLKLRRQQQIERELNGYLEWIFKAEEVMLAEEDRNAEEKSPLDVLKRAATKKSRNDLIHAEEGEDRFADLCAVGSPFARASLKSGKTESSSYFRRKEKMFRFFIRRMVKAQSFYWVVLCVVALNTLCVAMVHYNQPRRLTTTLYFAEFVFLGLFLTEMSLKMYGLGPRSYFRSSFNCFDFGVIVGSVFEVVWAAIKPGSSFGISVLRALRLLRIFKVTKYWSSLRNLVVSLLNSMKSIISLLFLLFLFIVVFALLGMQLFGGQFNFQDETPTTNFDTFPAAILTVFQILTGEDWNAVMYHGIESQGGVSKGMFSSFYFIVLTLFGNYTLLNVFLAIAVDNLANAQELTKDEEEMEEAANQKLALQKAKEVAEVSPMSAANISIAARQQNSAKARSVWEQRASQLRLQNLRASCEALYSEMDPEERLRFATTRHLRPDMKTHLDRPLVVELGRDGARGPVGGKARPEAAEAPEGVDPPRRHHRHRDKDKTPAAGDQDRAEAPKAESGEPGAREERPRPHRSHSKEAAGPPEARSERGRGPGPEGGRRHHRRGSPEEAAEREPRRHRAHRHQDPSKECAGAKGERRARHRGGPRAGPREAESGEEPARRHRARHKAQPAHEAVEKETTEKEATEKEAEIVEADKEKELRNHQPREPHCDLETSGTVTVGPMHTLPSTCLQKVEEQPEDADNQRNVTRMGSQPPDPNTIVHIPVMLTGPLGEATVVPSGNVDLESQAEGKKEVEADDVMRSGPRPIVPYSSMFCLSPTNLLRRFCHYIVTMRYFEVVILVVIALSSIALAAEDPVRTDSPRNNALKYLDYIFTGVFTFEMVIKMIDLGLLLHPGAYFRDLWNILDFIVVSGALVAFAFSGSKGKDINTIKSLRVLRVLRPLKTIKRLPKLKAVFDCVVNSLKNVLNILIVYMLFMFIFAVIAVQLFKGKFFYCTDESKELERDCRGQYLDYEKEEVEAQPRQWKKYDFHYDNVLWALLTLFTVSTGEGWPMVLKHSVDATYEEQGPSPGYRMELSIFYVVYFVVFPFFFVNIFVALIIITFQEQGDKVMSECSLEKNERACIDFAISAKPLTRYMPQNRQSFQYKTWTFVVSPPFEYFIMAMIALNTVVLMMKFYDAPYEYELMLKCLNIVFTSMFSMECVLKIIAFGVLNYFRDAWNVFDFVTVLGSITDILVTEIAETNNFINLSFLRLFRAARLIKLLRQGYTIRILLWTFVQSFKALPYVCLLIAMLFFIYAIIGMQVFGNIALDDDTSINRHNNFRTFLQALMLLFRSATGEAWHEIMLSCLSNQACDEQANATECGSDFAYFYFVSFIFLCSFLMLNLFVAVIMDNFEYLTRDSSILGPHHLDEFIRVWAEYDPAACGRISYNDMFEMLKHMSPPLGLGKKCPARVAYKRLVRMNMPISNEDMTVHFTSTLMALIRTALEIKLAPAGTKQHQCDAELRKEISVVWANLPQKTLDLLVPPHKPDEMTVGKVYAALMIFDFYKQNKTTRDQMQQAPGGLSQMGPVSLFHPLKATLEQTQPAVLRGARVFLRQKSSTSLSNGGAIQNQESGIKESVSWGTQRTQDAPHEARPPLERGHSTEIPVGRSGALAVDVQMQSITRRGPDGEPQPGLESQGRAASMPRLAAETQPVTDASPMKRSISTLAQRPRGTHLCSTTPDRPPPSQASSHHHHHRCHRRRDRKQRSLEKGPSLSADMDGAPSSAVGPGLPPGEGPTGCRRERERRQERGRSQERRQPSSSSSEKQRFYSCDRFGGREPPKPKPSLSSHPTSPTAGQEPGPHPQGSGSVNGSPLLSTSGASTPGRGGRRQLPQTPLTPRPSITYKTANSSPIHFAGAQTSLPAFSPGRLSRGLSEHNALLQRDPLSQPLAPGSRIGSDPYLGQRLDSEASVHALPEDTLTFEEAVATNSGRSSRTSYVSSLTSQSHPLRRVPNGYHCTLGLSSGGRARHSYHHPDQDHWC
Sequence (P54289 25-956 partner limits assumed): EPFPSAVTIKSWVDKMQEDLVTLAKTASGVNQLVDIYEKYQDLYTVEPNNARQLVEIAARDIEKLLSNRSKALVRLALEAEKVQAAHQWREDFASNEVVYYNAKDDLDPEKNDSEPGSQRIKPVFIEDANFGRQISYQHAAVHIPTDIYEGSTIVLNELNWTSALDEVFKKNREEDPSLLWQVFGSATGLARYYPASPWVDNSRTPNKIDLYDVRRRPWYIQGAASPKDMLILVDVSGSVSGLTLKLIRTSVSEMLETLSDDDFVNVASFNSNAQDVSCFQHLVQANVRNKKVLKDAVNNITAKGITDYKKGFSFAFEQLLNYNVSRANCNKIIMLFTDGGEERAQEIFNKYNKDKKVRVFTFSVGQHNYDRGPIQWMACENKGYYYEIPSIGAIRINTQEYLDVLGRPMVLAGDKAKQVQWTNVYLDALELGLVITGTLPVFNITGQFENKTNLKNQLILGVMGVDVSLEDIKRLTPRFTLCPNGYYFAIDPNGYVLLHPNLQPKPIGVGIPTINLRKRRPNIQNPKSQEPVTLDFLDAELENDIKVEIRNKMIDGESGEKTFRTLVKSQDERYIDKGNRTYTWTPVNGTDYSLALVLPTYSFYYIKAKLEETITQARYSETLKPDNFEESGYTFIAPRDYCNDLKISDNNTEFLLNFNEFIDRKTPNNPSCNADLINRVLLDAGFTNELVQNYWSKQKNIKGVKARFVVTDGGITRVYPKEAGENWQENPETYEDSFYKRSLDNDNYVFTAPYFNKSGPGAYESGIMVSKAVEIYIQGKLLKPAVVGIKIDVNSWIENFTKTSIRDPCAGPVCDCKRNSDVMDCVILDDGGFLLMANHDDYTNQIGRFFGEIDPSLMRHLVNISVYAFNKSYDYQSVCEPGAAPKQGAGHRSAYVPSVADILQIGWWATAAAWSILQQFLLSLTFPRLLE
Sequence (P54289 957-1103 partner limits assumed): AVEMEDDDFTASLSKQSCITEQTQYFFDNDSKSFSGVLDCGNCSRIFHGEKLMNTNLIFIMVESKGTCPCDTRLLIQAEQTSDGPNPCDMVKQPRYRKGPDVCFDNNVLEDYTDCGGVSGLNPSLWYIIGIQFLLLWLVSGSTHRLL
Sequence (P54284 whole entry partner): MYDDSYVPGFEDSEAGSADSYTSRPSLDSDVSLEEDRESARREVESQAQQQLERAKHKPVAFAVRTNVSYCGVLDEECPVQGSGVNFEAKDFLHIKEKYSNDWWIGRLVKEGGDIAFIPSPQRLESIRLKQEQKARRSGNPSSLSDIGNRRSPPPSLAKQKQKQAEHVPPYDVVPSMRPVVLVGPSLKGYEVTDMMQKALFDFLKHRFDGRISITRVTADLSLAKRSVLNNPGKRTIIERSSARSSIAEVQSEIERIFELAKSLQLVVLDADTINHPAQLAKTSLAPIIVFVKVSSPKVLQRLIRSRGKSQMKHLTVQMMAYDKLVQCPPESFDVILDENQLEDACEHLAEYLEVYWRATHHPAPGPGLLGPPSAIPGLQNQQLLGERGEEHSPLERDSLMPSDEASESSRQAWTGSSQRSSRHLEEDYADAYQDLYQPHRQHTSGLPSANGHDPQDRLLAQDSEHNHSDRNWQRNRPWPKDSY
In this section we review reported Inhibition of Calcium Flux in IMR-32 Cells % Inhibition at 10 μM values for a set of compounds.
measurement-name: Inhibition of Calcium Flux in IMR-32 Cells % Inhibition at 10 μM (%)

> print(dat)
                                   compound  uom  reported.measurement
1  CC(C)C[C@H](NC(=O)N1CCCCCC1)C(=O)N[C@@H](Cc1ccc(OCc2ccccc2)cc1)C(=O)NCc1cccc(I)c1 (relative stereo)    %                    83
2  CC(C)C[C@H](NC(=S)Nc1ccc(C(C)C)cc1)C(=O)N[C@@H](Cc1ccc(OCc2ccccc2)cc1)C(=O)OC(C)(C)C (relative stereo)    %                    38
3  CCC(=O)N[C@@H](CC(C)C)C(=O)N[C@@H](Cc1ccc(OCc2ccccc2)cc1)C(=O)OC(C)(C)C (relative stereo)    %                    66
4  CC(C)C[C@H](NS(=O)(=O)c1ccc([N+](=O)[O-])cc1)C(=O)N[C@@H](Cc1ccc(OCc2ccccc2)cc1)C(=O)OC(C)(C)C (relative stereo)    %                    91
5  CC(C)C[C@H](NC(=O)Nc1ccc([N+](=O)[O-])cc1)C(=O)N[C@@H](Cc1ccc(OCc2ccccc2)cc1)C(=O)OC(C)(C)C (relative stereo)    %                    46
